All values here come from PubChem BioAssay (NCI).

System: HOP-92 NSCLC
Assay: NCI tumour cell line growth inhibition, 48 h; in the data active = GI50 below about 0.43 µM; inactive = the rest
One label from this list, please: 1 (yes) = active, 0 (no) = inactive

See these solved cases before continuing.
compound="COc1ccc2nc3ccccc3c(NCCNCC(C)O)c2c1 (stereo not drawn)" system_name="HOP-92 NSCLC" category_label="1 (yes)"
compound="COc1cc(C2NC(=O)C(C#N)=C(Nc3cccc(C)c3)S2)ccc1O (stereo not drawn)" system_name="HOP-92 NSCLC" category_label="0 (no)"
compound=CC12O[C@H](C[C@@H](OC(=O)CCC(=O)O)[C@H]1O)n1c3ccccc3c3c4c(c5c6ccccc6n2c5c31)C(=O)NC4=O system_name="HOP-92 NSCLC" category_label="0 (no)"
compound="CC1OC(O[C@@H]2C=C3CC[C@@H]4[C@H](CC[C@]5(C)[C@@H](c6ccc(=O)oc6)CC[C@]45O)[C@@]3(C)CC2)C(O)C(OC2OC(CO)C(O)C(O)C2O)C1O (stereo partly drawn)" system_name="HOP-92 NSCLC" category_label="1 (yes)"
compound=CC(=O)c1c(C)c2cnc(Nc3ccc(N4CCNCC4)cn3)nc2n(C2CCCC2)c1=O system_name="HOP-92 NSCLC" category_label="0 (no)"
compound=COc1cc(C(=O)n2nc(N)c3c(C)cc(C)nc32)cc(OC)c1OC system_name="HOP-92 NSCLC" category_label="0 (no)"
compound=Cc1ccc(-c2nc3sc(C)cn3c2/C=C2\C(=O)Nc3ccc(Cl)cc32)cc1 system_name="HOP-92 NSCLC" category_label="0 (no)"
compound=Cc1c(C(N)=O)sc2nc(C)n(/N=c3\scc(-c4ccccc4)n3Cc3ccccc3)c(=O)c12 system_name="HOP-92 NSCLC" category_label="0 (no)"

Please find the next compound below.
# fetch the recorded call for CCOC(=O)/C=C1/SC(=Nc2ccc(C#N)cc2)N(Cc2ccco2)C1=O here
0 (no)

====

Test system: MOLT-4 leukemia
Experiment: NCI tumour cell line growth inhibition, 48 h
endpoint-name: TGI

molecule="O=C(NC1=C(Cl)C(=O)c2ccccc2C1=O)C(=O)C(C(=O)c1ccc2ccccc2c1)C1OC(=O)c2ccccc21 (configuration not stated)" system_name="MOLT-4 leukemia" endpoint_name=TGI reading="14.1 µM"
molecule=Cc1ccc(-c2nc3sc(C)cn3c2/C=C2\C(=O)Nc3ccc(Cl)cc32)cc1 system_name="MOLT-4 leukemia" endpoint_name=TGI reading="82.7 µM"
molecule=COc1cc(O)c(Cc2ccccc2O)c(O)c1C(=O)CCc1ccccc1 system_name="MOLT-4 leukemia" endpoint_name=TGI reading="10.5 µM"
molecule=S=C(SSC(=S)N1CCCCC1)N1CCCCC1 system_name="MOLT-4 leukemia" endpoint_name=TGI reading="49.5 µM"

So what does the record say about TGI for CCCCCCCCCCCCOC1C(COCCN2CCCCC2)OC2OC(C)(C)OC21 (configuration not stated) ?
3.74 µM

====

System: SF-295 CNS
Test: NCI tumour cell line growth inhibition, 48 h
Listed below: TGI values for each entry.

compound=O=c1c2c3c(sc2nc2n1NC=NN2)CCCC3 endpoint_name=TGI reading="30.2 µM"
compound=C(=N\NC1=NCCN1)/c1ccc2ccccc2c1 endpoint_name=TGI reading="29.9 µM"
compound="N#Cc1ccc(C2SCc3nc4ccccc4n32)cc1 (stereo unspecified)" endpoint_name=TGI reading="> 100 µM"
compound="COc1ccc([C@H]2CC3C(=O)N(c4ccc(OC)cc4)C(=O)C3c3[nH]c4ccccc4c32)cc1 (stereo partly specified)" endpoint_name=TGI reading="78.3 µM"
compound="COC(=O)c1ccccc1C1CN=NC12Cc1ccc3c(c1C2=O)CCC3 (stereo unspecified)" endpoint_name=TGI reading="> 100 µM"
compound=CCC(=O)Nc1nnc(Cc2ccc(OC)c(OC)c2)s1 endpoint_name=TGI reading="> 100 µM"
compound="CCN(CC)c1c(C)nnn1C1OC(COC(C)=O)C(OC(C)=O)C(OC(C)=O)C1OC(C)=O (stereo unspecified)" endpoint_name=TGI reading="> 100 µM"
compound="Nc1ccn(C2CCC(COP(=O)(O)OCC(O)COP(=O)(O)OCC3OC(n4cc(F)c(=O)[nH]c4=O)CC3O)O2)c(=O)n1 (stereo unspecified)" endpoint_name=TGI reading="> 100 µM"
compound=Cc1c(C(N)=O)sc2nc(C)n(/N=c3\scc(-c4ccccc4)n3Cc3ccccc3)c(=O)c12 endpoint_name=TGI reading="> 100 µM"
compound="CCN(CC)CCC1CCCCN1CC(=O)N1c2cc(Cl)ccc2NC(=O)CC1C (stereo unspecified)" endpoint_name=TGI reading="> 100 µM"

Give the measured TGI of COc1cc(C(=O)n2nc(N)c3c(C)cc(C)nc32)cc(OC)c1OC .
> 100 µM

Which TGI is listed for Cc1nn2c(c1C#N)NNc1c-2sc(=N)nnc1=O ?
> 100 µM

====

System: SR leukemia
Assay: NCI tumour cell line growth inhibition, 48 h; in the data active means GI50 below about 0.43 µM; inactive means the rest
The reply should be one of these categories: active, inactive

Which result was noted for this compound in the test: CCCCCCCCN=C(NCCCCCCCC)SCc1cccc2ccccc12
inactive

Hi, sorry to bother you, what did the test record for CCS(=O)(=O)c1ccc(OC)c(Nc2ncc(-c3cccc(F)c3)o2)c1 ?
inactive

====

System: SF-295 CNS
Test: NCI tumour cell line growth inhibition, 48 h
Listing of entries alongside the reported TGI.
Write the value in µM as a bare number.

compound_string=O=C1Nc2ccc(Br)cc2/C1=N/N1C(=O)C(=O)N(C2CCCCC2)C1=S system_name="SF-295 CNS" reading=15.4
compound_string=COc1ccc(-c2c(-c3ccc(C#N)c(F)c3)nc(N3CCC(N)CC3)n(C)c2=O)cc1F system_name="SF-295 CNS" reading=31.9

Turning now to a further record.
Any idea what TGI came out for FC(F)(F)c1cccc(-c2[nH]ncc2-c2nnnn2-c2ccccc2)c1 on SF-295 CNS?
9.04

====

Recorded measurements of TGI, one per entry
Test system: SK-MEL-28 melanoma
Assay: NCI tumour cell line growth inhibition, 48 h

molecule=S=C(SSC(=S)N1CCCCC1)N1CCCCC1 reading="69.3 µM"

Suppose we examine the molecule COc1cc2c[n+](C)c3c4cc(OC)c(OCc5ccccc5)cc4c(OCc4ccccc4)cc3c2cc1OC ; what TGI value has been reported?
20.2 µM

Entry CCOC(=O)C1C(=O)CC(=O)C2CCCCC21 (stereo not given) : reported TGI = ?
> 100 µM

TGI for NS(=O)(=O)c1ccc(N=Nc2c[nH]c(=O)c(O)c2)cc1 ?
> 100 µM

Would you kindly share the measured TGI for COc1ccc(-c2[nH]ncc2Nc2cc(OC)c(OC)c(OC)c2)cc1 ?
> 100 µM

Quick check: TGI of O=C(N/C(=C\c1ccc(/C=C(\NC(=O)c2ccccc2)c2nc3c(O)nc(S)nc3[nH]2)cc1)c1nc2c(O)nc(S)nc2[nH]1)c1ccccc1 ?
> 100 µM

For Cc1nc2ccc(NC3OCC(O)C(O)C3O)cc2c(=O)n1-c1ccccc1 (stereo not given) , what is its reported TGI?
> 100 µM

Name the reported TGI value associated with the molecule CN(C)CCCn1c(Cn2nc3ccccc3n2)nc2cc(C(F)(F)F)ccc21
34.6 µM

# input molecule: COC(=O)c1c2c(cc3c1CC1(Cc4ccccc4C1)C3)CCC2 ; wanted: its TGI
> 100 µM

Name the recorded TGI for CC(=O)CC(=O)Nc1ccccc1C(F)(F)F .
> 100 µM

====

Tested on: OVCAR-4 ovarian
Assay: NCI tumour cell line growth inhibition, 48 h
endpoint-name: TGI

Examples with answers:
molecule=COc1cc2c[n+](C)c3c4cc(OC)c(OCc5ccccc5)cc4c(OCc4ccccc4)cc3c2cc1OC reading="> 55 µM"
molecule=O=C1CN(c2cccc(C(F)(F)F)c2)C(=O)CN1CCN1CC(=O)N(c2cccc(C(F)(F)F)c2)CC1=O reading="> 100 µM"

// lookup TGI for COC(=O)C(CCC1(C)OCCO1)=[N+]=[N-]
> 100 µM

Look up TGI: COc1ccc(-c2c(-c3ccc(C#N)c(F)c3)nc(N3CCC(N)CC3)n(C)c2=O)cc1F
> 100 µM

====

We begin with a simple list: items and their reported TGI.
System: HCC-2998 colon
Experiment: NCI tumour cell line growth inhibition, 48 h

Reference set, count: 4
compound=CCOC(=O)NN(C(=O)OCC)C(C(=O)c1ccccc1)N(NC(=O)OCC)C(=O)OCC system_name="HCC-2998 colon" reading="> 100 µM"
compound=COC(=O)C(CCC1(C)OCCO1)=[N+]=[N-] system_name="HCC-2998 colon" reading="> 100 µM"
compound=CN(C)N=Nc1ccc(S(N)(=O)=O)cc1 system_name="HCC-2998 colon" reading="> 100 µM"
compound="Nc1ccn(C2CCC(COP(=O)(O)OCC(O)COP(=O)(O)OCC3OC(n4cc(F)c(=O)[nH]c4=O)CC3O)O2)c(=O)n1 (stereo unspecified)" system_name="HCC-2998 colon" reading="> 100 µM"

GET /values?readout=TGI&item= C=C1CCOC2(C(O)C(C)(O)CO)NC(=O)C1(O)NC2=O (stereo unspecified)
> 100 µM

Entry CC#COS(=O)(=O)c1ccc(C)cc1 : reported TGI = ?
> 100 µM

Entry CCN(CC)c1c(C)nnn1C1OC(COC(C)=O)C(OC(C)=O)C(OC(C)=O)C1OC(C)=O (stereo unspecified) : reported TGI = ?
> 100 µM

# TGI lookup, item CCN(C(=O)N[C@H](C(=O)N[C@@H](CSC)C(=O)N[C@@H](C)C(=O)OC)C(C)C)c1ccccc1
39.3 µM

TGI lookup needed for CN(C)c1ccc2[nH]c3c(C(N)=O)cc(=O)c(=O)c=3oc2c1 , thanks.
> 100 µM

Consider the compound shown here: NC1=Nc2ccccc2Sc2cccc(F)c21 What is its recorded TGI?
> 100 µM

Bench note: what TGI did COc1ccc2cc1Oc1ccc(cc1)C[C@@H]1c3cc(c(OC)cc3CCN1C)Oc1c(OC)c(OC)cc3c1[C@H](C2)N(C)CC3 show?
25.8 µM

Give the measured TGI of CC1(C)C(=O)/C=C\C(=O)C(C)(C)C(=O)/C=C\C(=O)C(C)(C)C2=CC=C(O2)C(C)(C)C(=O)/C=C\C1=O .
24.1 µM

Given the compound COc1cc(/C=C/C(=N\NC(N)=S)c2sc(NNC(C)=O)nc2C)ccc1O , what is its reported TGI?
> 100 µM

Request the reported TGI associated with COc1cc(-c2ccc[nH]2)[nH]c1/C=C1\N=C(C)C(CC(=O)OCC(C)(C)C)=C1C
1.75 µM

Can you share its TGI? I mean this compound: COc1ccc([I+]c2ccc(OC)cc2)cc1
> 100 µM

Look up TGI for this compound: CSc1ccc2c(c1)c(CCN)c(C)n2Cc1ccccc1Cl
2.04 µM

Given the compound COC(=O)c1c2c(cc3c1CC1(Cc4ccccc4C1)C3)CCC2 , what is its reported TGI?
98.7 µM

Given the compound Fc1ccc(C(OCCN2CCC3CCC(C2)N3C/C=C/c2cccs2)c2ccc(F)cc2)cc1 (stereo unspecified) , what is its reported TGI?
12.9 µM

Could you tell me which TGI is on file for CC(=O)NC(C)(C)C1CCC(C)CC1 (stereo unspecified) ?
> 100 µM

Which TGI value belongs to COC(=O)c1cc(-c2ccc(S(C)(=O)=O)cc2)[nH]c1N/N=C/c1c(Cl)cccc1Cl ?
19.8 µM

Give its TGI value. Item: O=C(NC1C/C(=N/O)c2c(Br)sc(Br)c21)C(F)(F)F (stereo unspecified)
> 100 µM
